Set-up: species or system Sprague-Dawley rats
Conditions: rat, in vivo
reported_property: Total T3 AUC, % (of T3) (%)

Suppose we examine the molecule N[C@@H](Cc1ccc(O)cc1)C(=O)N[C@@H](Cc1cc(I)c(Oc2ccc(O)c(I)c2)c(I)c1)C(=O)O ; what Total T3 AUC, % (of T3) value has been reported?
95.5

Suppose we examine the molecule CC(C)[C@H](N)C(=O)N[C@@H](Cc1cc(I)c(Oc2ccc(O)c(I)c2)c(I)c1)C(=O)O ; what Total T3 AUC, % (of T3) value has been reported?
94.9

Suppose we examine the molecule O=C(O)[C@H](Cc1cc(I)c(Oc2ccc(O)c(I)c2)c(I)c1)NC(=O)[C@@H]1CCCN1C(=O)[C@@H]1CCCN1 [P2-T3] ; what Total T3 AUC, % (of T3) value has been reported?
92.3

Suppose we examine the molecule CC[C@H](C)[C@H](N)C(=O)N[C@@H](Cc1cc(I)c(Oc2ccc(O)c(I)c2)c(I)c1)C(=O)O ; what Total T3 AUC, % (of T3) value has been reported?
96.6

Suppose we examine the molecule N[C@@H](Cc1ccccc1)C(=O)N[C@@H](Cc1ccccc1)C(=O)N[C@@H](Cc1cc(I)c(Oc2ccc(O)c(I)c2)c(I)c1)C(=O)O ; what Total T3 AUC, % (of T3) value has been reported?
88.3

Suppose we examine the molecule C[C@H](N)C(=O)N[C@@H](C)C(=O)N[C@@H](Cc1cc(I)c(Oc2ccc(O)c(I)c2)c(I)c1)C(=O)O ; what Total T3 AUC, % (of T3) value has been reported?
104.4

* * *

Set-up: species or system Sprague-Dawley rats
Conditions: rat, in vivo, po
reported_property: mean level of Total T3 at 1 hour post dose (ng/mL)

Suppose we examine the compound N[C@@H](Cc1ccccc1)C(=O)N[C@@H](Cc1ccccc1)C(=O)N[C@@H](Cc1cc(I)c(Oc2ccc(O)c(I)c2)c(I)c1)C(=O)O ; what mean level of Total T3 at 1 hour post dose value has been reported?
433.1

Suppose we examine the compound O=C(O)[C@H](Cc1cc(I)c(Oc2ccc(O)c(I)c2)c(I)c1)NC(=O)[C@@H]1CCCN1C(=O)[C@@H]1CCCN1 [P2-T3] ; what mean level of Total T3 at 1 hour post dose value has been reported?
431

Suppose we examine the compound CC[C@H](C)[C@H](N)C(=O)N[C@@H](Cc1cc(I)c(Oc2ccc(O)c(I)c2)c(I)c1)C(=O)O ; what mean level of Total T3 at 1 hour post dose value has been reported?
432.7

Suppose we examine the compound CC(C)[C@H](N)C(=O)N[C@@H](Cc1cc(I)c(Oc2ccc(O)c(I)c2)c(I)c1)C(=O)O ; what mean level of Total T3 at 1 hour post dose value has been reported?
429.5

Suppose we examine the compound N[C@@H](Cc1ccc(O)cc1)C(=O)N[C@@H](Cc1cc(I)c(Oc2ccc(O)c(I)c2)c(I)c1)C(=O)O ; what mean level of Total T3 at 1 hour post dose value has been reported?
403.3

* * *

Design: species or system Sprague-Dawley rats
Conditions: rat, in vivo
Procedure: Compounds were tested in Sprague-dawley rats (˜250 g). Defined doses were delivered as oral solutions in 0.5% sodium bicarbonate buffer with T3 sodium salt containing 12 mcgT3/kg or triiodothyronine composition containing the equivalent amount of T3. Rats were dosed immediately following 0 hour serum collection. […] Total serum T3 concentrations were determined by ELISA using a commercially available kit (Total Triiodothyronine (total T3) ELISA KIT, product #1700, ALPHA DIAGNOSTIC, San Antonio, Tex.). […]
reported_property: Total T3Δ dAUC, % (of T3) (%)

Suppose we examine the compound O=C(O)[C@H](Cc1cc(I)c(Oc2ccc(O)c(I)c2)c(I)c1)NC(=O)[C@@H]1CCCN1C(=O)[C@@H]1CCCN1 [P2-T3] ; what Total T3Δ dAUC, % (of T3) value has been reported?
97.9

Suppose we examine the compound CC(C)[C@H](N)C(=O)N[C@@H](Cc1cc(I)c(Oc2ccc(O)c(I)c2)c(I)c1)C(=O)O ; what Total T3Δ dAUC, % (of T3) value has been reported?
98.6

Suppose we examine the compound CC[C@H](C)[C@H](N)C(=O)N[C@@H](Cc1cc(I)c(Oc2ccc(O)c(I)c2)c(I)c1)C(=O)O ; what Total T3Δ dAUC, % (of T3) value has been reported?
100.8

Suppose we examine the compound N[C@@H](Cc1ccc(O)cc1)C(=O)N[C@@H](Cc1cc(I)c(Oc2ccc(O)c(I)c2)c(I)c1)C(=O)O ; what Total T3Δ dAUC, % (of T3) value has been reported?
100.4

Suppose we examine the compound C[C@H](N)C(=O)N[C@@H](C)C(=O)N[C@@H](Cc1cc(I)c(Oc2ccc(O)c(I)c2)c(I)c1)C(=O)O ; what Total T3Δ dAUC, % (of T3) value has been reported?
113.4

Suppose we examine the compound N[C@@H](Cc1ccccc1)C(=O)N[C@@H](Cc1ccccc1)C(=O)N[C@@H](Cc1cc(I)c(Oc2ccc(O)c(I)c2)c(I)c1)C(=O)O ; what Total T3Δ dAUC, % (of T3) value has been reported?
94.7

* * *

# TSH, mean per entry
System: TSH
Assay: Serum TSH after oral administration to hypothyroid rats (chemiluminescent immunoassay)
Format: in vivo, Sprague-Dawley rats
Conditions: 0 h (pre-dose), mean n=6, oral 12 μg/kg T3
Report as a plain number; the unit μIU is understood.

# example entries with known answers
Missing value: TSH, mean, TSH, entry C[C@H](N)C(=O)N[C@@H](C)C(=O)N[C@@H](Cc1cc(I)c(Oc2ccc(O)c(I)c2)c(I)c1)C(=O)O . Fill in?
2.459

Missing value: TSH, mean, TSH, entry N[C@@H](Cc1ccc(O)cc1)C(=O)N[C@@H](Cc1cc(I)c(Oc2ccc(O)c(I)c2)c(I)c1)C(=O)O . Fill in?
2.595

Missing value: TSH, mean, TSH, entry O=C(O)[C@H](Cc1cc(I)c(Oc2ccc(O)c(I)c2)c(I)c1)NC(=O)[C@@H]1CCCN1C(=O)[C@@H]1CCCN1 [P2-T3] . Fill in?
2.988

Missing value: TSH, mean, TSH, entry Cl.NCC(=O)NC(Cc1cc(I)c(Oc2ccc(O)c(I)c2)c(I)c1)C(=O)O (centres unmarked) . Fill in?
2.021

Missing value: TSH, mean, TSH, entry CC[C@H](C)[C@H](N)C(=O)N[C@@H](Cc1cc(I)c(Oc2ccc(O)c(I)c2)c(I)c1)C(=O)O . Fill in?
2.331

Missing value: TSH, mean, TSH, entry CC(C)[C@H](N)C(=O)N[C@@H](Cc1cc(I)c(Oc2ccc(O)c(I)c2)c(I)c1)C(=O)O . Fill in?
2.309

Missing value: TSH, mean, TSH, entry N[C@@H](Cc1cc(I)c(Oc2ccc(O)c(I)c2)c(I)c1)C(=O)O [T3 sodium, 3,3′,5-triiodo-L-thyronine] . Fill in?
2.193

Switching to the query record.
Missing value: TSH, mean, TSH, entry N[C@@H](Cc1ccccc1)C(=O)N[C@@H](Cc1ccccc1)C(=O)N[C@@H](Cc1cc(I)c(Oc2ccc(O)c(I)c2)c(I)c1)C(=O)O . Fill in?
3.035

* * *

Tested on: TSH
Assay: Serum TSH after oral administration to hypothyroid rats (chemiluminescent immunoassay)
Format: in vivo, Sprague-Dawley rats
Settings: 8 h, mean n=6, oral 12 μg/kg T3
# TSH, mean per entry
Report as a plain number; the unit μIU is understood.

# example entries with known answers
Missing value: TSH, mean, TSH, entry N[C@@H](Cc1cc(I)c(Oc2ccc(O)c(I)c2)c(I)c1)C(=O)O [T3 sodium, 3,3′,5-triiodo-L-thyronine] . Fill in?
0.136

Missing value: TSH, mean, TSH, entry N[C@@H](Cc1ccc(O)cc1)C(=O)N[C@@H](Cc1cc(I)c(Oc2ccc(O)c(I)c2)c(I)c1)C(=O)O [Y-T3] . Fill in?
0.221

Missing value: TSH, mean, TSH, entry O=C(O)[C@H](Cc1cc(I)c(Oc2ccc(O)c(I)c2)c(I)c1)NC(=O)[C@@H]1CCCN1C(=O)[C@@H]1CCCN1 [P2-T3] . Fill in?
0.189

---
Missing value: TSH, mean, TSH, entry C[C@H](N)C(=O)N[C@@H](C)C(=O)N[C@@H](Cc1cc(I)c(Oc2ccc(O)c(I)c2)c(I)c1)C(=O)O [A2-T3] . Fill in?
0.182

Missing value: TSH, mean, TSH, entry Cl.NCC(=O)NC(Cc1cc(I)c(Oc2ccc(O)c(I)c2)c(I)c1)C(=O)O (centres unmarked) [G-T3] . Fill in?
0.151

Missing value: TSH, mean, TSH, entry N[C@@H](Cc1ccccc1)C(=O)N[C@@H](Cc1ccccc1)C(=O)N[C@@H](Cc1cc(I)c(Oc2ccc(O)c(I)c2)c(I)c1)C(=O)O [F2-T3] . Fill in?
0.242

Missing value: TSH, mean, TSH, entry CC(C)[C@H](N)C(=O)N[C@@H](Cc1cc(I)c(Oc2ccc(O)c(I)c2)c(I)c1)C(=O)O [V-T3] . Fill in?
0.175

Missing value: TSH, mean, TSH, entry CC[C@H](C)[C@H](N)C(=O)N[C@@H](Cc1cc(I)c(Oc2ccc(O)c(I)c2)c(I)c1)C(=O)O [I-T3] . Fill in?
0.131
